- test-system: LC3C (Homo sapiens)
- Construct: insertion of full-length human GABARAP, GABARAP-L1, LC3A, and LC3C, and EcoRI and NotI restrictions sites for cloning of LC3B and GABARAP-L2; GST (followed by 3C protease site) (N); made in house; host or cells: bacteria (E. coli BL21 (DE3) pLysS is stated for the GST-ATG8 proteins of the overlay assay)
- Sequence (Q9BXW4 whole entry, the tested form may be a part): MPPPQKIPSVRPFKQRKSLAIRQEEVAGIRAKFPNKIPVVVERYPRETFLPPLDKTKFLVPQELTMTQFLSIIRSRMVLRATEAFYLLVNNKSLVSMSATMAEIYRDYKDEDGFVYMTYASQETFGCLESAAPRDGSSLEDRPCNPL
- method-notes: BLI, LIR peptide binding to LC3C
- assay-setup: read-out: Kd (best-fit value)
Ends that are not written are not given here.
quantity-name: pKd
Kindly note that pKd refers to -log10 of the concentration in mol/L and answer with the value alone.

Quick check: pKd on LC3C (Homo sapiens), item DSSCDTDDFVMVPAQF [ULK1 (aa 349-364)] ?
5.65

Give LC3C (Homo sapiens) pKd for DSSCDTDDFVMV [ULK1 (aa 349-360)]
5.66

# returns recorded pKd (system: LC3C (Homo sapiens)) for YRPPDDAVFDIITDEELCQIQ [FYCO1 WT]
5.52
